target: human serum albumin (human) (UniProt P02768); assay: primary ELISA screen, HSA negative control
Sequence (P02768 25-609 limits assumed): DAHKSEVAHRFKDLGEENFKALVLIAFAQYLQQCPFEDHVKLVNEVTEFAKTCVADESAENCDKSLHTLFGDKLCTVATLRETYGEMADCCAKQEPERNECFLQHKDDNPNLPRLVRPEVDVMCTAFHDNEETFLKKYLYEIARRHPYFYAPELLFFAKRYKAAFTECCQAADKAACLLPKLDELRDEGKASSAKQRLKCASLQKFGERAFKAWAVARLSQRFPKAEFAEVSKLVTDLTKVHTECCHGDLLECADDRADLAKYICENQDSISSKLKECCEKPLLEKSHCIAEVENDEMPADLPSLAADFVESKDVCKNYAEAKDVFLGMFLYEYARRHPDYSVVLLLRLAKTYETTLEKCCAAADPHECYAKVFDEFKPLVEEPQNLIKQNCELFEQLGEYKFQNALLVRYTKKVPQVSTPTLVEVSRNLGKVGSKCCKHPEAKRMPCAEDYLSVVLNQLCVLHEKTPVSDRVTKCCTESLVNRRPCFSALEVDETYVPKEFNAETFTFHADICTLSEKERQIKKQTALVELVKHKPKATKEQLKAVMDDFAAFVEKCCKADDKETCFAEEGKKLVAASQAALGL
outcomeMeasure: RLU (RLU)

binder	RLU, RLU
CD71-binding FN3 domain of SEQ ID NO: 344 (designed binder, not shown: small tags and cut ends) MSLPAPKNLFVSRVTEDSARLSWTAPDAAFDSFEIGYWENAYKGEAIVLTVPGSERSYDLTGLKPGTEYWVQIGGVKGGNWSAPLSAIFTT	36900

(A) CD71-binding FN3 domain of SEQ ID NO: 343 (designed binder, not shown: small tags and cut ends) MSLPAPKNLVVSRVTEDSARLSWTAPDAAFDSFFIGYLEPQPPGEAIALWVPGSERSYDLTGLKPGTEYNVTIQGVKGGFPSEPLVATFTT
(B) CD71-binding FN3 domain of SEQ ID NO: 342 (designed binder, not shown: small tags and cut ends) MSLPAPKNLVVSRVTEDSARLSWTAPDAAFDSFFIGYLEPQPPGEAIVLTVPGSERSYDLTGLKPGTEYNVTIQGVKGGFPSEPLIANFTT
Kindly identify the item with the lower RLU figure among these two: A and B State your choice using its label.
A
